Here's a batch of compounds along with measured Kd for Cbl-b (residues 36-427) (Homo sapiens).

Here's what some known entries look like.
>  <compound>
Cc1cc(C(=O)Nc2cccc([C@H](C)Sc3nncn3C)c2)nc(C(F)(F)F)c1 [Compound 65]

>  <Kd>
100 to 300 nM

$$$$
>  <compound>
Cc1ccc(C(=O)Nc2cccc([C@H](C)Sc3nncn3C)c2)nc1C [Compound 35]

>  <Kd>
3000 to 10000 nM

$$$$
>  <compound>
Cn1cnnc1C(F)(F)[C@](C)(F)c1cccc(N2Cc3c(cc(CN4CC[C@@H](F)C4)cc3C(F)(F)F)C2=O)c1 [Compound 450]

>  <Kd>
< 100 nM

$$$$

Q. Provide the documented Kd with Cbl-b (residues 36-427) (Homo sapiens) as the system for CNc1cccc(C(=O)Nc2cccc([C@H](C)Sc3nncn3C)c2)c1 [Compound 47]
A. 3000 to 10000 nM

Q. Provide the documented Kd with Cbl-b (residues 36-427) (Homo sapiens) as the system for CNS(=O)(=O)c1cc(C(=O)Nc2cccc([C@H](C)Cc3nncn3C)c2)nc(C(F)(F)F)c1 [Compound 201]
A. 301 to 1000 nM

###

System: T-cell
Test: IL-2 secretion from T-cells stimulated with anti-CD3 antibody alone (Biological Example 2)
Format: cell-based, human
Conditions: Homo sapiens, T-cell; 1 μM Cbl-b inhibitor; fold change over baseline (anti-CD3/anti-CD28 stimulated T-cells without inhibitor); read-out: IL-2 secretion Anti-CD3 stimulation
quantity: fold induction at 1 µM

>  <compound>
Cn1cnnc1CC1(c2cccc(N3Cc4c(cc(N5CCOC5=O)cc4C(F)(F)F)C3=O)c2)COC1 [Example 561]

>  <quantity>
fold induction at 1 µM

>  <result>
< 0.05

$$$$
>  <compound>
Cn1cnnc1CC1(c2cccc(N3Cc4c(cc(CN5CC[C@H](c6ccccc6)C5)cc4C(F)(F)F)C3=O)c2)COC1 [Example 662a]

>  <quantity>
fold induction at 1 µM

>  <result>
> 0.201

$$$$
>  <compound>
C[C@H](c1cc2c(c(C(F)(F)F)c1)CN(c1cccc(C3([C@H](F)c4nncn4C)COC3)c1)C2=O)N1CCC2(CC2)C1 (stereo in doubt) [Example 575]

>  <quantity>
fold induction at 1 µM

>  <result>
> 0.201

$$$$

Q. Provide the documented fold induction at 1 µM with T-cell as the system for Cn1cnnc1CC1(c2cccc(N3Cc4c(cc(CN5CCCCC(F)C5)cc4C(F)(F)F)C3=O)c2)COC1 (stereo not shown) [Example 627]
A. > 0.201

Q. Provide the documented fold induction at 1 µM with T-cell as the system for Cn1cnnc1CC1(c2cccc(NC(=O)c3cc(CN4CC[C@H](F)C4)nc(C(F)(F)F)n3)c2)COC1 [Example 699]
A. 0.051 to 0.1

###

System: T-cell
Assay: IL-2 secretion from T-cells co-stimulated with anti-CD3 and anti-CD28 antibody (Biological Example 2)
Assay type: cell-based, human
Settings: Homo sapiens, T-cell; 1 μM Cbl-b inhibitor; fold change over baseline (anti-CD3/anti-CD28 stimulated T-cells without inhibitor); read-out: IL-2 secretion Anti-CD3/Anti-CD28 stimulation
quantity: fold induction at 1 µM

Here's what some known entries look like.
>  <compound>
Cc1cc(C(=O)Nc2cccc(C3([C@H](F)c4nncn4C)COC3)c2)nc(C2CC2)n1 [Example 669a]

>  <fold induction at 1 µM>
5 to 7.5

$$$$
>  <compound>
CN1C[C@H]2C[C@@H]1CN2c1cc2c(c(C(F)(F)F)c1)CN(c1cccc([C@@](C)(F)C(F)(F)c3nncn3C)c1)C2=O

>  <fold induction at 1 µM>
> 7.5

$$$$
>  <compound>
COc1ccc2c(c1)CN(Cc1cc3c(c(C(F)(F)F)c1)CN(c1cccc(C4(Cc5nncn5C)COC4)c1)C3=O)C2

>  <fold induction at 1 µM>
> 7.5

$$$$
>  <compound>
CN1C2CCC1CN(c1cc3c(c(C(F)(F)F)c1)CN(c1cccc([C@@](C)(F)C(F)(F)c4nncn4C)c1)C3=O)C2

>  <fold induction at 1 µM>
2.51 to 5

$$$$
>  <compound>
Cn1cnnc1CC1(c2cccc(N3Cc4c(cc(CN5CCCc6c5cnn6C)cc4C(F)(F)F)C3=O)c2)COC1

>  <fold induction at 1 µM>
> 7.5

$$$$

Q. Look up fold induction at 1 µM: Cn1cnnc1CC1(c2cccc(N3Cc4c(cc(CN5CCC6(CC6)C(F)(F)C5)cc4C(F)(F)F)C3=O)c2)COC1
A. > 7.5

Q. Look up fold induction at 1 µM: Cn1cnnc1CC1(c2cccc(N3Cc4c(cc(N5CC6(CCC6(F)F)C5)cc4C(F)(F)F)C3=O)c2)COC1
A. 2.51 to 5

###

The entries below are paired with their reported Kd.
Target: Cbl-b (residues 36-427) (Homo sapiens, UniProt Q13191)
Sequence (Q13191 36-427): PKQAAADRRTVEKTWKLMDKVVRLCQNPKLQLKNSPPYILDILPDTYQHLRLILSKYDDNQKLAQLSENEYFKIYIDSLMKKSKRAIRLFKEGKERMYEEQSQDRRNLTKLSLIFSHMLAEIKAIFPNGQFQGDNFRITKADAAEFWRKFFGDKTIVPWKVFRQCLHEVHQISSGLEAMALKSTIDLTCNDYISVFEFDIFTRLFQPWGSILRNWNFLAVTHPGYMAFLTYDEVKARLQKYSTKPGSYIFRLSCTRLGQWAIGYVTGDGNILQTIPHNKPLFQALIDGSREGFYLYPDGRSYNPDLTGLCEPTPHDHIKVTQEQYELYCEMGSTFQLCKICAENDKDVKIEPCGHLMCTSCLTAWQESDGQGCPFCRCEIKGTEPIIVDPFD
Assay: Cbl-b binding assay (SPR, Biacore T200)
Conditions: 20° C., 1:1 binding model
Description: SPR data was collected on a Biacore T200 (GE Healthcare) using a NeutrAvidin (Invitrogen) capture surface that was generated on a polycarboxylate hydrogel sensor chip of medium charge density (XanTec Bioanalytics GmbH) at 20° C. The surface was prepared using 20 mM HEPES, pH 7.5, 100 mM NaCl, 0.5 mM TCEP, 0.01% Triton X-100 as the immobilization buffer. Neutravidin was coupled to the sensor chip through EDC/NHS amine coupling. All steps were performed using a flow rate of 10 μl/min. […]

>  <compound>
Cc1cnc(C(=O)Nc2cccc([C@H](C)Sc3nncn3C)c2)cc1C(F)(F)F

>  <Kd>
> 10000 nM

$$$$
>  <compound>
C[C@H](Cc1nncn1C)c1cccc(N2Cc3c(cc(C(=O)N4CC[C@H](O)C4)cc3C3CC3)C2=O)c1

>  <Kd>
100 to 300 nM

$$$$
>  <compound>
Cc1cncc(C(=O)Nc2cccc([C@H](C)Sc3nncn3C)c2)n1

>  <Kd>
3000 to 10000 nM

$$$$

Q. Look up Kd: C[C@H](Sc1nncn1C)c1cccc(NC(=O)c2cc(C(=O)N3CCCCC3)ccn2)c1
A. 3000 to 10000 nM

Q. Look up Kd: Cc1ccc(C(=O)Nc2cc([C@H](C)Sc3nncn3C)ccn2)nc1C1CC1
A. 1000 to 3000 nM

Q. Look up Kd: C[C@H](Sc1nncn1C)c1cccc(NC(=O)c2cc(C(F)(F)F)cc(Cl)n2)c1
A. 3000 to 10000 nM

Q. Look up Kd: Cc1c[nH]nc1C[C@@H](C)c1cccc(N2Cc3c(cc(C(=O)N4CCC(O)C4)cc3C(F)(F)F)C2=O)c1 (stereo in doubt)
A. < 100 nM

Q. Look up Kd: C[C@H](Sc1nncn1C)c1cccc(NC(=O)c2ccc(F)c(C3CC3)n2)c1
A. 100 to 300 nM

Q. Look up Kd: Cc1cc(C(=O)Nc2cccc([C@H](C)Sc3nncn3C)c2)ncc1Cl
A. 1000 to 3000 nM

Q. Look up Kd: C[C@H](Cc1nncn1C)c1cccc(N2Cc3c(cc(CN4C[C@@H](O)[C@H](F)C4)cc3C(F)(F)F)C2=O)c1
A. < 100 nM

Q. Look up Kd: C[C@@H]1[C@@H](c2nncn2C)[C@H]1c1cccc(N2Cc3c(cccc3C(F)(F)F)C2=O)c1
A. < 100 nM

Q. Look up Kd: CC(Sc1nncn1C)c1cccc(NC(=O)c2cnc3ccccc3n2)c1 (stereo not shown)
A. 3000 to 10000 nM

Q. Look up Kd: C[C@H](Cc1nncn1C)c1ccnc(NC(=O)c2ccc3ccccc3n2)c1
A. 3000 to 10000 nM

Q. Look up Kd: Cc1cc(C(=O)Nc2cccc(C3(Cc4nncn4C)COC3)c2)nc(C2CC2)n1
A. < 100 nM

Q. Look up Kd: C[C@H](Cc1nncn1C1CC1)c1cccc(N2Cc3c(cccc3C(F)(F)F)C2=O)c1
A. 3000 to 10000 nM

Q. Look up Kd: CNC(=O)COc1ccc2cnc(C(=O)Nc3cccc([C@H](C)Sc4nncn4C)c3)cc2c1 [Compound 306a]
A. 100 to 300 nM

Q. Look up Kd: C[C@H](Sc1nncn1C)c1cccc(NC(=O)c2cc(CCO)ccn2)c1
A. 3000 to 10000 nM

Q. Look up Kd: C[C@H](Cc1nncn1C)c1cccc(N2Cc3c(cc(CN4CC(C)(O)C4)cc3C(F)(F)F)C2=O)c1
A. < 100 nM

###

System: T-cell
Assay: IL-2 secretion from T-cells stimulated with anti-CD3 antibody alone (Biological Example 2)
Format: cell-based, human
Conditions: T-cell; fold change over baseline; 1 μM Cbl-b inhibitor; primary human total T-cells; read-out: IL-2 secretion Anti-CD3 stimulation
The entries below are paired with their reported fold induction at 1 µM.

Here's what some known entries look like.
>  <molecule>
Cc1ccnn1CC(C)c1cccc(NC(=O)c2cccc(C(F)(F)F)n2)c1 (stereo not shown) [Compound 215]

>  <fold induction at 1 µM>
0.051 to 0.1

$$$$
>  <molecule>
COc1ccc(C(=O)Nc2cccc([C@H](C)Sc3nncn3C)c2)nc1C1CC1 [Compound 93]

>  <fold induction at 1 µM>
< 0.05

$$$$

Switching to the query record.
Q. Look up fold induction at 1 µM: CC1OCC1Oc1cc([C@H](C)Cc2nncn2C)cc(N2Cc3c(cccc3C(F)(F)F)C2=O)n1 (stereo partly shown) [Compound 355]
A. 0.051 to 0.1
